Reference for the values: ChEMBL document CHEMBL3988442

Would you kindly list Percent Effect for each of these molecules?
- target-or-test-system: Sialic acid-binding Ig-like lectin 9 (Homo sapiens)
- experiment-description: Hs-Siglec9 ALPHAscreen SOP 20170721
- Parameters: scale not given: direction of the effect not stated beside the values
- measurement-context: 10 µM
Please reply with the bare figure in % and do not write the unit itself.

Task item: Report Percent Effect for O=C(CCCOCc1ccccc1)N1CCCC1c1ccccn1 (stereo not drawn) tested on Sialic acid-binding Ig-like lectin 9 (Homo sapiens).
Reply: -0.638

Task item: Report Percent Effect for "O=C(c1ccnnc1)N1C[C@H](Oc2cccnc2)[C@H]2OCCC[C@H]21" tested on Sialic acid-binding Ig-like lectin 9 (Homo sapiens).
Reply: -4.69

Task item: Report Percent Effect for CCc1ccc(C2CCCCCN2Cc2nc(CCOC)no2)o1 (stereo not drawn) tested on Sialic acid-binding Ig-like lectin 9 (Homo sapiens).
Reply: 5.24

Task item: Report Percent Effect for "Cc1cnn(CCNCc2ccc(C#N)cc2F)c1" tested on Sialic acid-binding Ig-like lectin 9 (Homo sapiens).
Reply: 8.42

Task item: Report Percent Effect for CCC1CN(Cc2ccccc2)CCN1Cc1nnc(C2CCC2)o1 (stereo not drawn) tested on Sialic acid-binding Ig-like lectin 9 (Homo sapiens).
Reply: 8.69

Task item: Report Percent Effect for "O=C(NCc1cnc2n1CCN(CC1CC1)CC2)C1CCC1" tested on Sialic acid-binding Ig-like lectin 9 (Homo sapiens).
Reply: 21.4

Task item: Report Percent Effect for "CCOc1cccc2c1OCC(C(=O)NS(=O)(=O)c1ccc(C)s1)=C2" tested on Sialic acid-binding Ig-like lectin 9 (Homo sapiens).
Reply: 7.91

Task item: Report Percent Effect for Cc1cccc(CNC2CCCc3c2cnn3C)c1 (stereo not drawn) tested on Sialic acid-binding Ig-like lectin 9 (Homo sapiens).
Reply: 5.27

Task item: Report Percent Effect for CN1CC(=O)N(c2cccc(F)c2)CC12CCNC2 (stereo not drawn) tested on Sialic acid-binding Ig-like lectin 9 (Homo sapiens).
Reply: -2.82

Task item: Report Percent Effect for "Cc1nn(C)c(N(C)C)c1CNCc1cccc(CN(C)C(C)C)c1" tested on Sialic acid-binding Ig-like lectin 9 (Homo sapiens).
Reply: 25.4

Task item: Report Percent Effect for CC(C)c1nc(C2CCCN2C(=O)c2nccnc2N)no1 (stereo not drawn) tested on Sialic acid-binding Ig-like lectin 9 (Homo sapiens).
Reply: 23.1

Task item: Report Percent Effect for Cc1cccc(-n2cc(C(=O)N3CCCC(n4cccn4)C3)nn2)c1 (stereo not drawn) tested on Sialic acid-binding Ig-like lectin 9 (Homo sapiens).
Reply: -1.49

Task item: Report Percent Effect for O=C1C(NS(=O)(=O)c2cc(F)cc(F)c2)CCN1Cc1ccccc1 (stereo not drawn) tested on Sialic acid-binding Ig-like lectin 9 (Homo sapiens).
Reply: -3.2

Task item: Report Percent Effect for "CC(C)c1ncncc1C(=O)N1CCN(Cc2cscn2)CC1" tested on Sialic acid-binding Ig-like lectin 9 (Homo sapiens).
Reply: 21.4

Task item: Report Percent Effect for Cc1cn2c(n1)CCC(NC(=O)c1ccc(CS(C)(=O)=O)o1)C2 (stereo not drawn) tested on Sialic acid-binding Ig-like lectin 9 (Homo sapiens).
Reply: 9.84

Task item: Report Percent Effect for "CC(C)(C)C(=O)NCCC(=O)NC(C)(C)c1ccc2c(c1)OCCO2" tested on Sialic acid-binding Ig-like lectin 9 (Homo sapiens).
Reply: -1.99

Task item: Report Percent Effect for COc1ccc(CN2CCC3(CC(=O)N(c4cncnc4)C3)C2)cc1 (stereo not drawn) tested on Sialic acid-binding Ig-like lectin 9 (Homo sapiens).
Reply: -9.74

Task item: Report Percent Effect for "Clc1ccc2oc(C3CCN(Cc4cccnc4)CC3)nc2c1" tested on Sialic acid-binding Ig-like lectin 9 (Homo sapiens).
Reply: 16.9

Task item: Report Percent Effect for "CC(C)CNC(=O)[C@H]1CCS(=O)(=O)[C@@H]2CN(Cc3ccc(Cl)cc3)C[C@H]12" tested on Sialic acid-binding Ig-like lectin 9 (Homo sapiens).
Reply: -4.02

Task item: Report Percent Effect for COc1ccc(CN(Cc2cncn2C)CC2CCCO2)cc1OC (stereo not drawn) tested on Sialic acid-binding Ig-like lectin 9 (Homo sapiens).
Reply: 0.383

Task item: Report Percent Effect for "CC(=O)Nc1ncc(S(=O)(=O)Nc2ccc(F)cc2F)s1" tested on Sialic acid-binding Ig-like lectin 9 (Homo sapiens).
Reply: -4.17

Task item: Report Percent Effect for O=S(=O)(NCC1CCOc2ccccc2C1)N1CCOCC1 (stereo not drawn) tested on Sialic acid-binding Ig-like lectin 9 (Homo sapiens).
Reply: 13.8

Task item: Report Percent Effect for "CCCc1nc(N2Cc3cnn(Cc4ccc(F)cc4)c3C2)no1" tested on Sialic acid-binding Ig-like lectin 9 (Homo sapiens).
Reply: 2.42

Task item: Report Percent Effect for "COc1ccnc(N2CCN(CC(=O)N3CCOCC3)CC2)n1" tested on Sialic acid-binding Ig-like lectin 9 (Homo sapiens).
Reply: -1.28

Task item: Report Percent Effect for CC(C)c1ccc(CN2CCC3(CCCN(c4nncs4)C3)C2)cc1 (stereo not drawn) tested on Sialic acid-binding Ig-like lectin 9 (Homo sapiens).
Reply: 37.5

Task item: Report Percent Effect for CC(C)C(C(=O)N1CCN(Cc2ccncc2)CC1)n1cncn1 (stereo not drawn) tested on Sialic acid-binding Ig-like lectin 9 (Homo sapiens).
Reply: 5.43

Task item: Report Percent Effect for CC1CCN(S(=O)(=O)NCC2CCOc3ccccc3C2)CC1 (stereo not drawn) tested on Sialic acid-binding Ig-like lectin 9 (Homo sapiens).
Reply: 4.95

Task item: Report Percent Effect for CN1CCCC(Cc2ccnc3ccncc23)CC1 (stereo not drawn) tested on Sialic acid-binding Ig-like lectin 9 (Homo sapiens).
Reply: 0.644

Task item: Report Percent Effect for "Cn1c(Cn2ccnc2)nnc1C1CCN(Cc2cccnc2N)CC1" tested on Sialic acid-binding Ig-like lectin 9 (Homo sapiens).
Reply: -9.15

Task item: Report Percent Effect for "Cc1cc(CN2CCc3nn(C)c(=O)cc3C2)on1" tested on Sialic acid-binding Ig-like lectin 9 (Homo sapiens).
Reply: -1.88

Task item: Report Percent Effect for "Cc1nc2cc(O)nn2c(C)c1CCC(=O)N(C)Cc1cscn1" tested on Sialic acid-binding Ig-like lectin 9 (Homo sapiens).
Reply: -2.99

Task item: Report Percent Effect for CS(=O)(=O)c1ccc(CNC2CCCN(c3cccnn3)C2)cc1 (stereo not drawn) tested on Sialic acid-binding Ig-like lectin 9 (Homo sapiens).
Reply: -0.526

Task item: Report Percent Effect for CC(C)c1noc(C(C)N2CCN(CCN3CCCC3=O)CC2)n1 (stereo not drawn) tested on Sialic acid-binding Ig-like lectin 9 (Homo sapiens).
Reply: 9.09

Task item: Report Percent Effect for "CCCNC(=O)COc1ccc(C)cn1" tested on Sialic acid-binding Ig-like lectin 9 (Homo sapiens).
Reply: 4.96

Task item: Report Percent Effect for "CCOCCn1c(=O)[nH]c2cc(C(=O)N(C)Cc3nc(C)cs3)ccc21" tested on Sialic acid-binding Ig-like lectin 9 (Homo sapiens).
Reply: 8.59

Task item: Report Percent Effect for "Cc1cc(C[C@@H]2COC[C@@H]2NC(=O)Cn2c(=O)oc3ccccc32)on1" tested on Sialic acid-binding Ig-like lectin 9 (Homo sapiens).
Reply: -2.12

Task item: Report Percent Effect for CC(C)Oc1cccc(C(=O)C2CCCN(C(=O)c3ccccn3)C2)c1 (stereo not drawn) tested on Sialic acid-binding Ig-like lectin 9 (Homo sapiens).
Reply: 4.35

Task item: Report Percent Effect for "O=C([C@@H]1CCO[C@@H]2CCN(Cc3cccnc3)C[C@H]21)N1CCCCO1" tested on Sialic acid-binding Ig-like lectin 9 (Homo sapiens).
Reply: 5.02

Task item: Report Percent Effect for CN1CC(=O)N(c2ccccc2)CC12CCN(Cc1nccs1)C2 (stereo not drawn) tested on Sialic acid-binding Ig-like lectin 9 (Homo sapiens).
Reply: -3.23

Task item: Report Percent Effect for CC(O)CN1CCN(C(=O)CN(C)c2cnccn2)CC1 (stereo not drawn) tested on Sialic acid-binding Ig-like lectin 9 (Homo sapiens).
Reply: 6.58

Task item: Report Percent Effect for CCCn1[nH]cc/c1=N\C(=O)CN1CCCC1c1c(C)nn(C)c1C (stereo not drawn) tested on Sialic acid-binding Ig-like lectin 9 (Homo sapiens).
Reply: 15.7

Task item: Report Percent Effect for c1coc(CN2Cc3nccn3CC(Cn3cncn3)C2)c1 (stereo not drawn) tested on Sialic acid-binding Ig-like lectin 9 (Homo sapiens).
Reply: 1.11

Task item: Report Percent Effect for CCC(O)CN1CCN(C(=O)c2ccnc(N(C)C)c2)CC1 (stereo not drawn) tested on Sialic acid-binding Ig-like lectin 9 (Homo sapiens).
Reply: 13

Task item: Report Percent Effect for CCc1nc(CN(C)C2CCN(Cc3ccc(C#N)cc3F)C2)no1 (stereo not drawn) tested on Sialic acid-binding Ig-like lectin 9 (Homo sapiens).
Reply: -0.906

Task item: Report Percent Effect for "CCOc1ccccc1-c1noc(CN2CC(n3cccn3)C2)n1" tested on Sialic acid-binding Ig-like lectin 9 (Homo sapiens).
Reply: -3.32

Task item: Report Percent Effect for "COc1cc2nc3n(c(=O)c2cc1OC)CCN(C)CC3" tested on Sialic acid-binding Ig-like lectin 9 (Homo sapiens).
Reply: 1.61

Task item: Report Percent Effect for NCCn1nc(C2CCN(Cc3ccc(Cl)c(Cl)c3)C2)c2nccnc21 (stereo not drawn) tested on Sialic acid-binding Ig-like lectin 9 (Homo sapiens).
Reply: 0.383

Task item: Report Percent Effect for O=C(Nc1ccccc1)C1CN(CC2CC2)CC12CCOCC2 (stereo not drawn) tested on Sialic acid-binding Ig-like lectin 9 (Homo sapiens).
Reply: -3.04
